Quick reference for 结合信号值 relative to control sample (fold) among some binders
- TARGET OF ASSAY: T1, 人OX40 expressed on cells (表达OX40的CHO细胞; OX40过表达的功能细胞系) (human, UniProt P43489 29-277)
- T1 construct: whole, on cells; also called CD134; TNFRSF4
- T1 sequence (looked up): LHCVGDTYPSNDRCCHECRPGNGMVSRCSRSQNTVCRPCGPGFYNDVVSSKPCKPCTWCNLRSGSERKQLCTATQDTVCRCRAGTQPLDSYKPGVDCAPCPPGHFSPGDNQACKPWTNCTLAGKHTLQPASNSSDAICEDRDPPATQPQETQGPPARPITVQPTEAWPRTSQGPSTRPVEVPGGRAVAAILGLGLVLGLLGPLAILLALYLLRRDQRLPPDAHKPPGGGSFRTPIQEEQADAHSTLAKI
- EXPERIMENTAL DETAILS: flow cytometry on OX40-expressing CHO cells, 5 μg/ml antibody
# include the unit after the value

Answered cases to consult:
q: I am curious: what 结合信号值 relative to control sample (fold) value has been reported for 99A2A8D4E8 (antibody, V domains shown) VH: QIQLVQSGPELKKPGETVKISCKASGYTFTDYSMHWVKQAPGKGLKWMGWISTETGEPTYADDFKGRFAFSLETSASTAYLQIKNLKNEDTASYFCARVRPWYLAVWGAGTTVTVSS VL: DIQMTQTTSSLSASLGDRVTISCRASQDISNYLNWYQQKPDGTVKLLIYYTSRLYSGVPSRFSGSGSGADYSLTVSNLEQEDIATYFCQQANTLPLTFGAGTKLELK ?
a: 200 fold

q: I am curious: what 结合信号值 relative to control sample (fold) value has been reported for 68G8C4B12 (antibody, V domains shown) VH: QVQLKESGPGLVAPSQSLSITCTVSGFSLTNYGVHWVRQPPGKGLEWLGVIWDDGNTNYNSALMSRLSINKDNSKSQVFVTMNSLQIDDTAMYYCALFDGYYGWFAYWGQGTLVTVSS VL: DIQMTQTTSSLSASLGDRVTISCRASQDISFYLNWYQQKPDGTVKLLIYYTSRLHSGVPSRFSGSGSGTDYSLTISNLEQEDFATYFCQQGHTLPWTFGGGSKLEIK ?
a: 200 fold

q: I am curious: what 结合信号值 relative to control sample (fold) value has been reported for 9G4C8B11 (antibody, V domains shown) VH: DVQLQESGPGLVKPSQSLSLTCSVTGYSITSGYYWNWIRQFPGNKLEWMGYISYDGSNNYNPSLKNRISITRDTSKNQFFLKLNSVTTEDTATYYCARDRAYYSNYVGWYFDVWGTGTTVTVSS VL: DIVLTQSPASLAVSLGQRATISCRASESVDNYGNSFMHWYQQTPGQPPKLLIYRASNLESGIPAKFSGSGSRTDFTLTINPVEADDVATYYCQQSNEDPLTFGAGTKLELK ?
a: 200 fold

q: I am curious: what 结合信号值 relative to control sample (fold) value has been reported for 17B12G2C3 (antibody, V domains shown) VH: EVQLQQSGPELVKPGASVKISCKASGYTFTDYYMNWVKQSHGKSLEWIGDINPNNGGTNYNQKFKGKATLTVDKSSSTTYMELRSLTSEDSAVYYCARSGGWLLQDYWGQGTTLTVSS VL: DIQMTQTTSSLSASLGDRVTITCRASLDISNYLNWYQQKPDGTVKFLIYYTSRLHSGVPSRFSGSGSGTDYSLTISNLEQEDIATYFCQQGNTLPYTFGGGTKLEIK ?
a: 200 fold

Next:
q: I am curious: what 结合信号值 relative to control sample (fold) value has been reported for 83C2H3B6 (antibody, V domains shown) VH: QVQLKQSGPGLVQPSQSLSITCTVSGFSLTSYGVHWVRQSPGKGLEWLGVIWSGGSTDYNAAYISRLSISKDNSKSQVFFKMNSLQADDTATYYCANYDYDVPYWGQGTLVTVSA VL: DIQMTQSPASQSASLGESVTITCLASQTIGTWLAWYQQKPGKSPQLLIYAATSLADGVPSRFSGSGSGTKFSFKISSLQAEDFVSYYCQQLYSTPFTFGSGTKLEIK ?
a: 200 fold

q: I am curious: what 结合信号值 relative to control sample (fold) value has been reported for 51E2G12D6 (antibody, V domains shown) VH: QVTLKESGPGILQPSQTLSLTCSFSGFSLDTSGMGVTWIRQPSGKGLEWLAHIYWDDDKHYNPSLKSRLTISKDTSSTQVLLKITSVVTADTATYYCARRALGAMDYWGQGTSVTVSS VL: DIQMTQTTSSLSASLGDRVTISCRASQDISHYLNWYQQKPDGTVKLLIYYTSTLHSGVPSRFSGSGSGTDYSLTISNLEQEDIATYFCQQGKTLPPTFGAGTELELK ?
a: 200 fold

Recorded values, source patent CN109232738A.
